TARGET OR SYSTEM: Cyclin-dependent kinase 4/cyclin D1 (Homo sapiens, UniProt P11802)
Sequence (P11802 whole entry): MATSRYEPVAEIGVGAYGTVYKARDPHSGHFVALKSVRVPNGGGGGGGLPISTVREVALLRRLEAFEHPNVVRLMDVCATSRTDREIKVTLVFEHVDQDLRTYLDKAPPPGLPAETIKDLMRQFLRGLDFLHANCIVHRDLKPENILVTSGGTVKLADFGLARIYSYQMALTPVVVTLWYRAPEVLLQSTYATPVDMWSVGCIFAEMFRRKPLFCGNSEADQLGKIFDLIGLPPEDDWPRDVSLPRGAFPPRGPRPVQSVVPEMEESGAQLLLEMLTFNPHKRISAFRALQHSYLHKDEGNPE
Sequence (P24385 whole entry, further chain): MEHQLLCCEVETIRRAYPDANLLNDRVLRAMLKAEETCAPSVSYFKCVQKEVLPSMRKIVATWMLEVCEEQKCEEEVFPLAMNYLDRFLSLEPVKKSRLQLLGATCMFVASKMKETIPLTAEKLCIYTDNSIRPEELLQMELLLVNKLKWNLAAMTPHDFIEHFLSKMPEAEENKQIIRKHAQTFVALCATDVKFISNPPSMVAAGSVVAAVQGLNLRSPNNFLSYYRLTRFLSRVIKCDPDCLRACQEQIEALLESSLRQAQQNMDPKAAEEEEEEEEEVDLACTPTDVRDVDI
EXPERIMENT SUMMARY: Inhibitory activity against cyclin D1/ (cyclin dependent kinase) CDK4
This section presents compounds with their documented log10 of IC50 values.
READOUT: log10 of IC50 (log10 of the value in nM)

STRUCTURE NOTATION	log10 of IC50
CN(C)CCCn1c2ccccc2c2c3c(c4c5ccccc5cnc4c21)C(=O)NC3=O	2.23
COc1ccc2c(c1)[nH]c1c3cnc4ccccc4c3c3c(c21)C(=O)NC3=O	2.32
O=C1NC(=O)c2c1c1c3ccccc3cnc1c1c2c2ccccc2n1CCCCO	3.06
O=C1NC(=O)c2c1c1cnc3ccccc3c1c1c2c2ccccc2n1CCCO	3.08
CN(C)CCCCn1c2ccccc2c2c3c(c4c5ccccc5cnc4c21)C(=O)NC3=O	3.06
O=C1NC(=O)c2c1c1c3ccncc3ccc1c1[nH]c3ccccc3c21	1.84
O=C1NC(=O)c2c1c1c3ccccc3ncc1c1[nH]c3ccccc3c21	2.83

====

TARGET OR SYSTEM: Cyclin-dependent kinase 4/cyclin D1 (Homo sapiens, UniProt P11802)
EXPERIMENT SUMMARY: Inhibitory activity against cyclin D1/ (cyclin dependent kinase) CDK4
pIC50: −log10 of the molar value.
This section presents compounds with their documented pIC50 values.
READOUT: pIC50

STRUCTURE NOTATION	TARGET OR SYSTEM	OBS VALUE
O=C1NC(=O)c2c1c1c3ccccc3cnc1c1[nH]c3c(CCO)cccc3c21	Cyclin-dependent kinase 4/cyclin D1 (Homo sapiens, UniProt P11802)	< 5.70
O=C1NC(=O)c2c1c1c3ccccc3cnc1c1[nH]c3ccccc3c21	Cyclin-dependent kinase 4/cyclin D1 (Homo sapiens, UniProt P11802)	< 5.70
O=C1NC(=O)c2c1c1cnc3ccccc3c1c1[nH]c3ccccc3c21	Cyclin-dependent kinase 4/cyclin D1 (Homo sapiens, UniProt P11802)	< 5.00
O=C1NC(=O)c2c1c1nc3ccccc3cc1c1[nH]c3ccccc3c21	Cyclin-dependent kinase 4/cyclin D1 (Homo sapiens, UniProt P11802)	< 5.00
O=C1NC(=O)c2c1c1c3ccccc3cnc1c1c2c2ccccc2n1CCCO	Cyclin-dependent kinase 4/cyclin D1 (Homo sapiens, UniProt P11802)	< 5.70
O=C1NC(=O)c2c1c1c3ccccc3ncc1c1[nH]c3cc(Cl)ccc3c21	Cyclin-dependent kinase 4/cyclin D1 (Homo sapiens, UniProt P11802)	< 5.70
O=C1NC(=O)c2c1c1c(ccc3cccnc31)c1[nH]c3ccccc3c21	Cyclin-dependent kinase 4/cyclin D1 (Homo sapiens, UniProt P11802)	< 5.70
O=C1NC(=O)c2c1c1c3cccnc3ccc1c1[nH]c3ccccc3c21	Cyclin-dependent kinase 4/cyclin D1 (Homo sapiens, UniProt P11802)	< 6.70
